# Measured on: DLG2_3, Q15700
# Assay overview: holdup assay
# Parameters: key: below the threshold = too weak to quantify, mostly under pKd 3.1 to 4
# Condition notes: plain residues with an end cap or a label only (N-terminal biotin on a linker: ado-ado)
Experimental readout: pKd
Give the figure only, with no unit attached.

Consider the worked cases shown below.
[[record]]
binder = "QRPYRRGSEI [KCNJ18, B7U540]"
result = 3.91

[[record]]
binder = "GIKKITSTAL [RPS6KA3, P51812]"
result = 3.63

[[record]]
binder = "RDPPAEWTRV [PTPN18, Q99952]"
result = 3.54

[[record]]
binder = "KPGKGSETVV [FZD4, Q9ULV1]"
result = 4.01

[[record]]
binder = "MQHQRTHTRV [ZSCAN30, Q86W11]"
result = 4.67


**Q:** // query pKd value for entry LPAVCYDIDI [PTTG2, Q9NZH5]
**A:** 3.63

**Q:** // query pKd value for entry QKAPTKEFYA [SDC2, P34741]
**A:** 3.83

These measurements were taken from paper PMC9482650.
